In this section, each of the binders is paired with its reported koff.
# study_target: T1, hen egg lysozyme (Gallus gallus (hen), UniProt P00698)
# T1 construct: hen egg lysozyme (lysozyme C), bought from Wako Pure Chemical; also called HEL; source: bought: Wako Pure Chemical (Cat. No. 126-02671), used without further purification
# T1 sequence (P00698 19-147): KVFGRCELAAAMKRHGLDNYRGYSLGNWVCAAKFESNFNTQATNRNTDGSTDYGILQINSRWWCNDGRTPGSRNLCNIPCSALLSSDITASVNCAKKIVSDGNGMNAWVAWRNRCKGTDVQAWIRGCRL
# procedure_text: SPR; Biacore T200; HEL immobilised on CM5 chip (200 RU); VHH flowed over; 25 °C; PBS with 0.005% Tween 20; global fit to a 1:1 binding model
# test_parameters: both partners purified
# number only, unit s⁻¹ dropped from output

- binder: "D3-L11 S113A (VHH, as the VHH chain of m2 with the stated change; source: E. coli BL21(DE3), purified (Ni-NTA, SEC)) VHH: DVQLVESGGGSVQAGGSLRLSCAASGSTDSIEYMTWFRQAPGKAREGVAALYTHTGNTYYTDSVKGRFTISQDKAKNMAYLRMDSVKSEDTAIYTCGATRKYVPVRFALDQSAYDYWGQGTQVTVSS"
  experimental_value: 0.00831
- binder: "D3-L11 (VHH, VHH D3-L11 specific for HEL; Synthetic gene in pRA2 with a pelB signal peptide at the N-terminus and a His6-tag at the C-terminus; also called WT; WT antibody; source: E. coli BL21(DE3), purified (Ni-NTA, SEC)) VHH: DVQLVESGGGSVQAGGSLRLSCAASGSTDSIEYMTWFRQAPGKAREGVAALYTHTGNTYYTDSVKGRFTISQDKAKNMAYLRMDSVKSEDTAIYTCGATRKYVPVRFALDQSSYDYWGQGTQVTVSS"
  experimental_value: 0.000785
- binder: "D3-L11 R106A (VHH, as the VHH chain of m2 with the stated change; source: E. coli BL21(DE3), purified (Ni-NTA, SEC)) VHH: DVQLVESGGGSVQAGGSLRLSCAASGSTDSIEYMTWFRQAPGKAREGVAALYTHTGNTYYTDSVKGRFTISQDKAKNMAYLRMDSVKSEDTAIYTCGATRKYVPVAFALDQSSYDYWGQGTQVTVSS"
  experimental_value: 0.00183

API: the following record is the query input.
stdin: Entry D3-L11 F107A (VHH, as the VHH chain of m2 with the stated change; source: E. coli BL21(DE3), purified (Ni-NTA, SEC)) VHH: DVQLVESGGGSVQAGGSLRLSCAASGSTDSIEYMTWFRQAPGKAREGVAALYTHTGNTYYTDSVKGRFTISQDKAKNMAYLRMDSVKSEDTAIYTCGATRKYVPVRAALDQSSYDYWGQGTQVTVSS has what koff?
stdout: 0.0147
